# ASSAY NAME: Cytotoxicity against human MCF7 cells assessed as growth inhibition after 48 hrs by MTT assay
# Type: cell-based
MEASURE: GI50 at 48 h

Request: # GI50 at 48 h lookup, item `COc1cc(OC)c(C(=O)/C=C/c2cccc(N3CCNCC3)c2)c(O)c1CC=C(C)C`
Result: > 100 µM

* * *

# ASSAY NAME: Cytotoxicity against MDCK2 cells expressing BCRP assessed as growth inhibition after 48 hrs by MTT assay
# Format: ADME, cell-based, Canis lupus familiaris
# ASSAY SETUP: dog, MDCK2 (MDCK-II) cells expressing BCRP
MEASURE: GI50 at 48 h

Request: # GI50 at 48 h lookup, item `COc1cc(OC)c(C(=O)/C=C/c2cccc(N3CCNCC3)c2)c(O)c1CC=C(C)C`
Result: > 100 µM
